Taken from patent US5416191A.

Please respond with reported Kb for every item in the list.
- Test system: bradykinin receptor of the B2 class (rat uterus) (Rattus norvegicus, UniProt P25023)
- Construct: concentration effect curves to bradykinin (BK) on rat uterus in vitro; from tissue; host or cells: rat uterus
- Sequence (P25023 1-396): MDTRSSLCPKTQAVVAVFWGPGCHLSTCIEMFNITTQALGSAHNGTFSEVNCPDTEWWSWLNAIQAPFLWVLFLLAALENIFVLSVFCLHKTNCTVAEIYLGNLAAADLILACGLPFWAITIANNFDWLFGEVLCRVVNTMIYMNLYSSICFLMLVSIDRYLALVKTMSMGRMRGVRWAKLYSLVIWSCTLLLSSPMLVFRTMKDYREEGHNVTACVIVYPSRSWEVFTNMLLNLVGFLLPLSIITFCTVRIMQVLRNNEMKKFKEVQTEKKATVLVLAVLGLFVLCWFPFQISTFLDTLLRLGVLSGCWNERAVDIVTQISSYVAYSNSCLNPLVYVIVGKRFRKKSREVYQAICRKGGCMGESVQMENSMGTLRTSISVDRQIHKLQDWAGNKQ
- Assay: Rat uterus (RU) in vitro, antagonism of bradykinin
- Settings: Table C; rat uterus; P.A. = Partial Agonist; read-out: pA2 MONOMER (converted)
Peptide text beside a SMILES is read from it.
Write down the numeric answer in nM and omit the unit.

// recorded Kb for CC(C)C[C@H](NC(=O)[C@@H](Cc1ccccc1)NC(=O)[C@H](CO)NC(=O)[C@H](Cc1ccccc1)NC(=O)CNC(=O)[C@@H]1C[C@@H](O)CN1C(=O)[C@@H]1CCCN1C(=O)[C@H](CCCNC(=N)N)NC(=O)[C@H](N)CCCNC(=N)N)C(=O)N[C@@H](CS)C(=O)O [CP-0148] (HELM PEPTIDE1{[dR].R.P.[Hyp].G.F.S.[dF].L.C}$$$$V2.0) : 200

// recorded Kb for CC(C)C[C@H](NC(=O)[C@@H](Cc1ccccc1)NC(=O)[C@H](CO)NC(=O)[C@H](Cc1ccccc1)NC(=O)CNC(=O)[C@@H]1C[C@@H](O)CN1C(=O)[C@H](CS)NC(=O)[C@H](CCCNC(=N)N)NC(=O)[C@H](N)CCCNC(=N)N)C(=O)N[C@@H](CCCNC(=N)N)C(=O)O [CP-0142] (HELM PEPTIDE1{[dR].R.C.[Hyp].G.F.S.[dF].L.R}$$$$V2.0) : 398

// recorded Kb for CC(C)C[C@H](NC(=O)[C@@H](Cc1ccccc1)NC(=O)[C@H](CO)NC(=O)[C@H](Cc1ccccc1)NC(=O)CNC(=O)[C@@H]1C[C@@H](O)CN1C(=O)[C@@H]1CCCN1C(=O)[C@H](CCCNC(=N)N)NC(=O)[C@@H](N)CS)C(=O)N[C@@H](CCCNC(=N)N)C(=O)O [CP-0140] (HELM PEPTIDE1{C.R.P.[Hyp].G.F.S.[dF].L.R}$$$$V2.0) : 100

// recorded Kb for CC(C)C[C@H](NC(=O)[C@@H](Cc1ccccc1)NC(=O)[C@H](CO)NC(=O)[C@H](CS)NC(=O)CNC(=O)[C@@H]1C[C@@H](O)CN1C(=O)[C@@H]1CCCN1C(=O)[C@H](CCCNC(=N)N)NC(=O)[C@H](N)CCCNC(=N)N)C(=O)N[C@@H](CCCNC(=N)N)C(=O)O [CP-0144] (HELM PEPTIDE1{[dR].R.P.[Hyp].G.C.S.[dF].L.R}$$$$V2.0) : 63.1
